meta.source: ChEMBL document CHEMBL1139192

SYSTEM UNDER TEST: Proto-oncogene tyrosine-protein kinase Src (Homo sapiens)
METHOD NOTES: Residual activity of human cSRC at 1 uM relative to control

STRUCTURE NOTATION	residual activity
O=C1NC(=O)C2=C1c1cn(c3ccccc13)CCCc1ccc(c(N3CCCC3)n1)CCCn1cc2c2ccccc21	113%
O=C1NC(=O)C2=C1c1cn(c3ccccc13)CCCc1cc(nc(N3CCCC3)c1)CCCn1cc2c2ccccc21	97%
CN(C)c1cc2cc(n1)CCCn1cc(c3ccccc31)C1=C(C(=O)NC1=O)c1cn(c3ccccc13)CCC2	105%
CN(C)c1nc2ccc1CCCn1cc(c3ccccc31)C1=C(C(=O)NC1=O)c1cn(c3ccccc13)CC2	81%
